Ref: paper PMC5540273

tested on: AURKC; settings: concentration: 1 μM, replicates: in singlicate; n = 1;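 note: KINOMEscan kinase panel screen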
The entries below are paired with their reported %Inh.
Answer with a number only, understood to be in %.

Item Cc1cccc(Cn2ccn3c(=O)cc(N4CCOCC4)nc23)c1 was tested on AURKC; the reported %Inh is 18

Form: item Cc1ccc(NC(=O)c2ccnc(N3CCN(C)CC3)c2)cc1-c1ccc(C(=O)NCC2CC2)cc1 ; test system AURKC; %Inh: 0

As a next step, examine the compound that follows.
The compound CN(C1=C(c2ccccc2)C(=O)NC1=O)c1ccccc1 on AURKC: %Inh was 0

---

test system: NEK1; conditions: concentration: 1 μM, replicates: in singlicate; n = 1
Measured Endpoint: %Inh (%)
Please state the figure in %; there is no need to write the unit.

Look over these answered cases.
// %Inh value for CN(C1=C(c2ccccc2)C(=O)NC1=O)c1ccccc1 : 8

compound CC(C)Oc1ccc2c(-c3ccnc(Nc4ccc(N5CCN(C)CC5)cc4)n3)cnn2n1 , %Inh observed: 86

Others:
Lab note: measured %Inh of O=C1NC(=O)C(N2CCc3ccccc32)=C1c1cccc(Cl)c1 was 3
